Test system: 521955-158-R2-J5-PDC complex spheroids, viability
Assay: Anticancer human tumor 521955-158-R2-J5-PDC patient-derived pancreatic carcinoma cell line growth inhibition [RAS]
Settings: second compound 3.16 µM; first compound 0.00316 µM; hits give low values
Description: RAS pathway inhibitors in Combinations in Complex Spheroids A high-throughput screen of multi-cell type tumor spheroids was designed to identify active combinations of RAS pathway inhibitors and targeted small molecules. Complex spheroids include a stromal component modeled by human endothelial cells (HUVEC) and fibroblasts modeled by human mesenchymal stem cells (MSCs). […] Compounds. […] If the clinical Cmax for an agent had not been determined, the highest concentration tested was 10 microM. […]
Hi there, I'd appreciate the recorded viability, T/C for every entry that follows.
Numbers only, in %.

Consider the following illustrative entries.
>  <molecule>
O=C(c1ccc(F)c(F)c1Nc1ccc(I)cc1F)N1CC(O)([C@@H]2CCCCN2)C1 + C#Cc1c(F)ccc2cc(O)cc(-c3ncc4c(N5CC6CCC(C5)N6)nc(OCC56CCCN5CC(F)C6)nc4c3F)c12

>  <viability, T/C [%]>
43.9

$$$$
>  <molecule>
Nc1ccn(C2OC(CO)C(O)C2(F)F)c(=O)n1 (centres undefined) + C#Cc1c(F)ccc2cc(O)cc(-c3ncc4c(N5CC6CCC(C5)N6)nc(OCC56CCCN5CC(F)C6)nc4c3F)c12

>  <viability, T/C [%]>
48.5

$$$$

I have 2 molecules here; please give me viability, T/C for each one.
1. CC(C)n1nc(-c2ccc3oc(N)nc3c2)c2c(N)ncnc21 + C#Cc1c(F)ccc2cc(O)cc(-c3ncc4c(N5CC6CCC(C5)N6)nc(OCC56CCCN5CC(F)C6)nc4c3F)c12
2. C=CC(=O)Nc1cc(Nc2nccc(-c3cn(C)c4ccccc34)n2)c(OC)cc1N(C)CCN(C)C + C#Cc1c(F)ccc2cc(O)cc(-c3ncc4c(N5CC6CCC(C5)N6)nc(OCC56CCCN5CC(F)C6)nc4c3F)c12

[33.2, 43]

====

I'd appreciate it if you could supply viability, T/C values for the items below.
System: 521955-158-R2-J5-PDC complex spheroids, viability
Test: Anticancer human tumor 521955-158-R2-J5-PDC cell line growth inhibition [RAS];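 further: spheroids also contain HUVEC endothelial cells and mesenchymal stem cells as stroma; compound exposure lasted seven days before the viability read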
Conditions: second compound 0.00316 µM; first compound 0.1 µM; hits give low values
Excerpt: RAS pathway inhibitors in Combinations in Complex Spheroids A high-throughput screen of multi-cell type tumor spheroids was designed to identify active combinations of RAS pathway inhibitors and targeted small molecules. Complex spheroids include a stromal component modeled by human endothelial cells (HUVEC) and fibroblasts modeled by human mesenchymal stem cells (MSCs). […] Compounds. […] If the clinical Cmax for an agent had not been determined, the highest concentration tested was 10 microM. […]
Answers are plain numbers, in %.

Some compounds with known viability, T/C results, for comparison:
>  <compound>
CC(C)NCC(C(=O)N1CCN(c2ncnc3c2C(C)CC3O)CC1)c1ccc(Cl)cc1 (stereo not drawn) + C=CC(=O)N1CCN(c2nc(OCC3CCCN3C)nc3c(F)c(-c4nc(N)cc(C)c4C(F)(F)F)c(Cl)cc23)C(C)C1

>  <viability, T/C, %>
93.2

$$$$
>  <compound>
CC(C)n1nc(-c2ccc3oc(N)nc3c2)c2c(N)ncnc21 + C=CC(=O)N1CCN(c2nc(OCC3CCCN3C)nc3c(F)c(-c4nc(N)cc(C)c4C(F)(F)F)c(Cl)cc23)C(C)C1

>  <viability, T/C, %>
34.5

$$$$
>  <compound>
CC(Nc1ccc2c(c1)OCCn1cc(N3C(=O)OCC3C(F)F)nc1-2)C(N)=O (stereo not drawn) + C=CC(=O)N1CCN(c2nc(OCC3CCCN3C)nc3c(F)c(-c4nc(N)cc(C)c4C(F)(F)F)c(Cl)cc23)C(C)C1

>  <viability, T/C, %>
70.9

$$$$
>  <compound>
CCN1CCN(Cc2ccc(Nc3ncc(F)c(-c4cc(F)c5nc(C)n(C(C)C)c5c4)n3)nc2)CC1 + C=CC(=O)N1CCN(c2nc(OCC3CCCN3C)nc3c(F)c(-c4nc(N)cc(C)c4C(F)(F)F)c(Cl)cc23)C(C)C1

>  <viability, T/C, %>
85.2

$$$$
>  <compound>
Cc1nc(N2CCC3(CC2)COC(C)C3N)c(CO)nc1Sc1ccnc(N)c1Cl (stereo not drawn) + C=CC(=O)N1CCN(c2nc(OCC3CCCN3C)nc3c(F)c(-c4nc(N)cc(C)c4C(F)(F)F)c(Cl)cc23)C(C)C1

>  <viability, T/C, %>
77.2

$$$$

Hi team, please reply with viability, T/C for each item in this list.
1. C=CC(=O)Nc1cc(Nc2nccc(-c3cn(C)c4ccccc34)n2)c(OC)cc1N(C)CCN(C)C + C=CC(=O)N1CCN(c2nc(OCC3CCCN3C)nc3c(F)c(-c4nc(N)cc(C)c4C(F)(F)F)c(Cl)cc23)C(C)C1
2. CC(=O)OC12COC1CC(O)C1(C)C(=O)C(O)C3=C(C)C(OC(=O)C(O)C(NC(=O)OC(C)(C)C)c4ccccc4)CC(O)(C(OC(=O)c4ccccc4)C21)C3(C)C (stereo not drawn) + C=CC(=O)N1CCN(c2nc(OCC3CCCN3C)nc3c(F)c(-c4nc(N)cc(C)c4C(F)(F)F)c(Cl)cc23)C(C)C1
3. CCC(CC)c1cc(NC2CCC(N)C2)n2nccc2n1 (stereo not drawn) + C=CC(=O)N1CCN(c2nc(OCC3CCCN3C)nc3c(F)c(-c4nc(N)cc(C)c4C(F)(F)F)c(Cl)cc23)C(C)C1
4. NC1c2ccccc2OC12CCN(c1cnc3c(N4CCCc5ncccc54)n[nH]c3n1)CC2 (stereo not drawn) + C=CC(=O)N1CCN(c2nc(OCC3CCCN3C)nc3c(F)c(-c4nc(N)cc(C)c4C(F)(F)F)c(Cl)cc23)C(C)C1
5. O=C(c1ccc(F)c(F)c1Nc1ccc(I)cc1F)N1CC(O)([C@@H]2CCCCN2)C1 + C=CC(=O)N1CCN(c2nc(OCC3CCCN3C)nc3c(F)c(-c4nc(N)cc(C)c4C(F)(F)F)c(Cl)cc23)C(C)C1
6. Nc1ccn(C2OC(CO)C(O)C2(F)F)c(=O)n1 (stereo not drawn) + C=CC(=O)N1CCN(c2nc(OCC3CCCN3C)nc3c(F)c(-c4nc(N)cc(C)c4C(F)(F)F)c(Cl)cc23)C(C)C1
7. C[C@@H](NC(=O)c1ncnc(N)c1Cl)c1ncc(C(=O)Nc2cc(C(F)(F)F)c(Cl)cn2)s1 + C=CC(=O)N1CCN(c2nc(OCC3CCCN3C)nc3c(F)c(-c4nc(N)cc(C)c4C(F)(F)F)c(Cl)cc23)C(C)C1

1: 81.2; 2: 34.1; 3: 118; 4: 69.4; 5: 36.6; 6: 59; 7: 90.8

Please look up its viability, T/C: CC1(O)CCCC1n1c(=O)c(C(F)F)cc2cnc(NC3CCN(S(C)(=O)=O)CC3)nc21 (stereo not drawn) + C=CC(=O)N1CCN(c2nc(OCC3CCCN3C)nc3c(F)c(-c4nc(N)cc(C)c4C(F)(F)F)c(Cl)cc23)C(C)C1 83
